# tgt: NADPH oxidase 5 (Homo sapiens) (UniProt Q96PH1)
# Sequence (Q96PH1 whole entry, looked up): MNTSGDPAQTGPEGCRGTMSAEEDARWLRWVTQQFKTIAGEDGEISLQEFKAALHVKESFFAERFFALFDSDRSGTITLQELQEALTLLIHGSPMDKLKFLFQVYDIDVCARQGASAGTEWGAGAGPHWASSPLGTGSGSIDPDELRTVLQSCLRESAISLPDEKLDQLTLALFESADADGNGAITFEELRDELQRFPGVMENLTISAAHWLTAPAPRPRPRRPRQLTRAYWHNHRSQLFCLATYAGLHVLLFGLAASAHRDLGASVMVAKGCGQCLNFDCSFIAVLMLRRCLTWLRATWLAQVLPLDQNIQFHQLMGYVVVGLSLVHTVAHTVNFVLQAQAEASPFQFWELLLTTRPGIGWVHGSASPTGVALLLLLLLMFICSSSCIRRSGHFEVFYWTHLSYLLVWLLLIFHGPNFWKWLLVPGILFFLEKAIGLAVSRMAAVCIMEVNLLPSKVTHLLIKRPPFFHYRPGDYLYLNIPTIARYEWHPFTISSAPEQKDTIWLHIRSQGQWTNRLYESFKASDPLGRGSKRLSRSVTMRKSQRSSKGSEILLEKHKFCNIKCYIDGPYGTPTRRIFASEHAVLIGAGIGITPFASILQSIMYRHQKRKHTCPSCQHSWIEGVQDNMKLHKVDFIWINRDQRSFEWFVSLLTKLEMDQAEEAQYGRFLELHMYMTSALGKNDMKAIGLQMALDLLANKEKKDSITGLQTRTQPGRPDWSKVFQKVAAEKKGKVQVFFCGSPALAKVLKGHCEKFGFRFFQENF
# methodSummary: NOX5-dependent H2O2 signal modulators, primary screen, NOX inhibitor project, cell-based, HEK293-NOX5, Amplex Red fluorescence (AID 1161)
# reportedConditions: HEK293-NOX5, ionomycin, 45 min, higher = more signal
Decision: z-score >= -0.1 yields true, all other cases yield false.

Completed entries (count: 3):
# molecule, tgt, answerLabel
measured = [
    ("CCOC(=O)C1=CC[C@@H](c2ccccc2Cl)N(S(=O)(=O)c2ccc(C)cc2)[C@H]1c1cccc(OC)c1", "NADPH oxidase 5 (Homo sapiens) (UniProt Q96PH1)", "true"),
    ("COCCOC(=O)N1C(=O)[C@@]2(c3cc(C#CC4=CCCCC4)ccc31)[C@H](C(=O)N1CCN(c3ncccn3)CC1)[C@H]1C(=O)O[C@H](c3ccccc3)[C@H](c3ccccc3)N1[C@@H]2c1ccccc1OCCO", "NADPH oxidase 5 (Homo sapiens) (UniProt Q96PH1)", "false"),
    ("COc1ccccc1CN1C(=O)c2ccccc2[C@](Cc2ccccc2I)(C(=O)NCCCN(C)C)[C@@H]1c1ccc(CO)cc1", "NADPH oxidase 5 (Homo sapiens) (UniProt Q96PH1)", "false"),
]

// query Could you please find out whether CN1C(=O)C2C(C1=O)C1C=C(c3ccc(CO)cc3)C2C(c2cccs2)N1C (stereo not given) has z-score that meets -0.1 or exceeds it?
// result false

// query Textbook exercise: given the entry C=CCNC(=O)[C@H]1[C@@H]2C(=O)O[C@@H](c3ccccc3)[C@@H](c3ccccc3)N2[C@@H](c2ccccc2OCCO)[C@]12C(=O)N(C(=O)OCCOC)c1ccccc12 , state whether its z-score is greater than or equal to -0.1.
// result true

// query Test whether the molecule CN(C)CCCC[C@@H]1NC(=O)[C@H]2C[C@@H](C(=O)O)[C@@H](c3cccc(OCCO)c3)N2C1=O records z-score of -0.1 or higher.
// result false

// query Please tell me: is the molecule COc1ccccc1CN1C(=O)c2ccccc2[C@@H](C(=O)NCCCN(C)C)[C@@H]1c1ccc(CO)cc1 at or over -0.1 in terms of z-score?
// result false

// query Determine whether this molecule has z-score no lower than -0.1: CCN(CC)c1ccc(N2CC=CC34O[C@@H]5C=CCOC(=O)[C@@H]5[C@H]3C(=O)N(CCCO)[C@@H]4C2=O)cc1 (stereo not given in full)
// result true
